- TARGET OR SYSTEM: Porcine ventricle myofibrils (ventricular myosin ATPase) (Sus scrofa, UniProt P79293)
- Construct: Myofibrils from porcine cardiac muscle was isolated from the left ventricle of Yucatan minipigs; tissue Exemplar Genetics; host or cells: left ventricle of Yucatan minipigs, myofibrils prepared in house
- Sequence (P79293 whole entry): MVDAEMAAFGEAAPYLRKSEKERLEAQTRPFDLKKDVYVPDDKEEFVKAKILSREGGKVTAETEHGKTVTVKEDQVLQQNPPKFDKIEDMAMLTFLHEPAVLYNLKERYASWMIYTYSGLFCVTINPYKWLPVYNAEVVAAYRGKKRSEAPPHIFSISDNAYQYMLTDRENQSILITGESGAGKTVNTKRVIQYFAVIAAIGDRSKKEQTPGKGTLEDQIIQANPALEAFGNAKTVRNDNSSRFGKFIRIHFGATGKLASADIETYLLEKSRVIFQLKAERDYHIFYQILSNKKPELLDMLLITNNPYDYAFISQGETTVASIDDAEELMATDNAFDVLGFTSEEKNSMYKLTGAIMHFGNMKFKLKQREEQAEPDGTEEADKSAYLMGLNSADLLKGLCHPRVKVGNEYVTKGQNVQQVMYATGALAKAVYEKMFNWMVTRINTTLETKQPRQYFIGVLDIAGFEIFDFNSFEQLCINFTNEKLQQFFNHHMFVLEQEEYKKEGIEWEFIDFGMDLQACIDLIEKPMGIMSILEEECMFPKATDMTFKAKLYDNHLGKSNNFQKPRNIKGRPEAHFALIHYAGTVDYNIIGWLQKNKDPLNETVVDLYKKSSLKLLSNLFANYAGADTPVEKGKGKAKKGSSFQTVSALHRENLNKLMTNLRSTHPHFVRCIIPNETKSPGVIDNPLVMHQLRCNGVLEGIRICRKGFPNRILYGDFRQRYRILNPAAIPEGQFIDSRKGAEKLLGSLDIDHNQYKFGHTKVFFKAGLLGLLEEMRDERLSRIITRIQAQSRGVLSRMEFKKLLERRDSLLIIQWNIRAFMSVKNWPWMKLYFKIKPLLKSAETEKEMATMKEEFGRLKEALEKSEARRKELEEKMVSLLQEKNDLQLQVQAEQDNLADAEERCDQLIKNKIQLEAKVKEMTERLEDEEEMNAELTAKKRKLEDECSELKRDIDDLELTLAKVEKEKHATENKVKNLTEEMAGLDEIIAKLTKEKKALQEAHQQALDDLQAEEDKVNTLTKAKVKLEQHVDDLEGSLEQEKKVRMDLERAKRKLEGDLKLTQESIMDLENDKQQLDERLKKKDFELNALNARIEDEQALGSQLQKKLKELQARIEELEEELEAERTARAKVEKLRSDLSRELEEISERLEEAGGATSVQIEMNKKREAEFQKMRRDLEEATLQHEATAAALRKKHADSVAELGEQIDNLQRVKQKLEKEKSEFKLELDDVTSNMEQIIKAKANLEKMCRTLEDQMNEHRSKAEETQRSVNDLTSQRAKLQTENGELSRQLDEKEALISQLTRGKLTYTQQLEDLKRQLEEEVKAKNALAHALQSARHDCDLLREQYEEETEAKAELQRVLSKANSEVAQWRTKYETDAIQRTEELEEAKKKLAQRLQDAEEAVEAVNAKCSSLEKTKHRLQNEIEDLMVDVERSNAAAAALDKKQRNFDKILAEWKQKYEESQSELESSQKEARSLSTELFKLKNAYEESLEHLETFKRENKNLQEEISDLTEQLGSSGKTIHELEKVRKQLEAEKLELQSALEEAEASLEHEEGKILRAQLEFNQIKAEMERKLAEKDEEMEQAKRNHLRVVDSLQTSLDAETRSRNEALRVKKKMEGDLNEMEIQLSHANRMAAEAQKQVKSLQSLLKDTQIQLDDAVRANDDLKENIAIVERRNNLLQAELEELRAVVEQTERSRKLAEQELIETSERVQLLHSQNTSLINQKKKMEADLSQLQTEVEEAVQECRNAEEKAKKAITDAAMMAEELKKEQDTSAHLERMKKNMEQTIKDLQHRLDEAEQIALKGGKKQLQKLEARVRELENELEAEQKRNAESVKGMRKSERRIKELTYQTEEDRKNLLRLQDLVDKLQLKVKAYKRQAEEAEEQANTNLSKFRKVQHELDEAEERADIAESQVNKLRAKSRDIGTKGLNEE
- ASSAY METHOD TEXT: Myofibril ATPase assay, porcine ventricle myofibrils
- Format: biochemical, porcine (Yucatan minipigs)
- TEST PARAMETERS: porcine ventricle myofibrils; Y75 value
- Experimental: Example 1. Myofibril ATPase Assay Myofibril ATPase assays are known in the art to be useful in evaluating small molecules for the treatment of HCM and other cardiac indications. Myosin ATPase activity is assessed by using a coupled reaction system, in which ADP generated by the myosin ATPase function is coupled to the disappearance of NADH through the pyruvate kinase/lactate dehydrogenase (PK-LDH) system. […]
PROPERTY MEASURED: Ventricular EC25 (µM)
Numbers only, in µM.

Would you please look over these solved cases?
COMPOUND	Ventricular EC25 / µM
Cc1ccccc1[C@@H](CO)NC(=O)Cc1c(C)c2c(C)nccc2[nH]c1=O (single isomer, unassigned)	100.00
Cc1c(CC(=O)N[C@@H](CO)c2ccc(C#N)cc2F)c(=O)[nH]c2ccc(C(F)(F)F)nc12	7.16
Cc1c(CC(=O)N[C@@H](C)c2ccc(F)cc2F)c(=O)[nH]c2ccc(Br)nc12	0.31
C[C@H](NC(=O)[C@@H](C)c1c(C(F)(F)F)c2cnccc2[nH]c1=O)c1ccc(F)cc1F (single isomer, unassigned)	66.84
Cc1nccc2[nH]c(=O)c(CC(=O)N[C@@H]3CCc4cc(C#N)cc(F)c43)c(C)c12 (single isomer, unassigned)	49.43

q: Supply reported Ventricular EC25 belonging to this compound: Cc1nccc2[nH]c(=O)c(CC(=O)N[C@@H](C)c3ccc(S(C)(=O)=O)cc3F)c(C)c12 (single isomer, unassigned)
a: 100.00

These measurements were taken from patent US12448369B2.
